Data origin, for the record: PubChem BioAssay

composite z-score for assorted molecules
# system: Carbonic anhydrase 2 (Homo sapiens)
# test_summary: compounds binding carbonic anhydrase 2 – biochemical, small-molecule microarray, Alexa647-labelled CAII, profiling panel (AID 1122)
# assay_setup: CAII-A647 binding fluorescence, higher = more signal

chemical_structure | composite z-score
COC(=O)[C@@]1(Cc2ccc(F)cc2)[C@H]2c3cc(C(=O)N(C)C)n(CCc4ccc(O)c(O)c4)c3C[C@H]2CN1C(=O)c1ccccc1 | 0.863
NC(=O)NCC#Cc1ccc2c(c1)[C@]1(C(=O)N2)[C@H](c2ccc(OCCO)cc2)N2[C@H](c3ccccc3)[C@H](c3ccccc3)OC(=O)[C@H]2[C@@H]1C(=O)O | 0.256
CCCNC(=O)[C@@]1(c2ccc([N+](=O)[O-])cc2)CC(=O)N(C(C)C)[C@@H]1c1ccc(CO)cc1 | 0.801
N#Cc1ccc(-c2cccc(=O)o2)cc1 | 0.0483
C=CC[C@@]1(C(=O)OC)N=C(c2ccc(OCCCO)cc2)O[C@@H]1c1ccccc1N=[N+]=[N-] | 0.475

----------
# test_summary: probe aDKK1 binding to arrayed compounds – biochemical, biotinylated probe, 635/667 nm fluorescence, primary screen (AID 1099);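 further: score merges 667nm spot fluorescence with signal to noise across triplicate slides; reference of the scale not given here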
# assay_setup: small-molecule microarray, higher = more signal
endpoint_label: composite z-score

compound | obs_value
COCCOC(=O)N1C(=O)[C@@]2(c3cc(C#Cc4ccc(OC)cc4)ccc31)[C@H](c1ccc(OCCO)cc1)N1[C@H](c3ccccc3)[C@H](c3ccccc3)OC(=O)[C@H]1[C@@H]2C(=O)NC[C@H](O)c1ccccc1 | 0.92
C[N+](C)(C)CCCC[C@@H]1NC(=O)[C@@H]2C[C@H](C(=O)NCc3ccc(F)cc3)[C@H](c3ccc(O)cc3)N2C1=O | -0.277
COC(=O)[C@@]1(Cc2ccc(F)cc2)[C@H]2c3cc(C(=O)N4CCCC4)n(Cc4ccccn4)c3C[C@H]2CN1C(=O)c1ccccc1 | 0.757
C=C(C)[C@@H]1CC=C(C(O)C2C=CC3C(=O)N(c4ccccc4)C(=O)C3N2Nc2ccc([N+](=O)[O-])cc2)CC1 (stereo partly specified) | 0.32
O=C(O)[C@H](Cc1ccccc1)n1cc(C2(O)CCCCC2)nn1 | -0.201
CCCC=C(CCC)[C@@H](NC(=O)c1ccc(C(F)(F)F)cc1)c1ccc(C(F)(F)F)cc1 | 0.73

----------
z-score for assorted compounds
# test_summary: compound effects on multiple myeloma cell viability – MM1S, calcein-AM fluorescence, 48 h, basal, profiling panel (AID 1165);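 further: viability of MM1S multiple myeloma cells under basal unstimulated conditions; test concentration not given here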
# assay_setup: higher = more signal

compound | z-score
CC(C)N1C(=O)c2ccccc2[C@](C)(C(=O)NCC(F)(F)F)[C@@H]1c1ccc(CO)cc1 | 0.0226
CC(C)c1nc2cc(Br)ccc2c(=O)o1 | 0.345
CN1C(=O)C2C(C1=O)C1C=C(c3ccc(CO)cc3)C2C(C2CC2)N1C (stereo not drawn) | 0.535
O=C1O[C@H](Cc2ccccc2)[C@@H]2[C@H]3C=CCCC=C3CN2[C@H]1Cc1ccc(O)cc1 | -3.14
CCCN1C(=O)[C@@]2(c3ccc([N+](=O)[O-])cc3)CC(=O)N(CC34CC5CC(CC(C5)C3)C4)[C@@H]2c2ccc(CO)cc21 | -0.194
CC1CC/C=C\[C@H]2OC34C=CCN(CCN5CCOCC5)C(=O)[C@H]3N(CCCO)C(=O)[C@@H]4C2C(=O)O1 (stereo partly drawn) | 1.22
CC(C)N1C(=O)c2ccccc2[C@@H](C(=O)NCC(F)(F)F)[C@@H]1c1ccc(CO)cc1 | 0.238
CCCCN1CC=CC23O[C@@H]4/C=C\CCCOC(=O)C4[C@H]2C(=O)N(C(CO)C(C)C)[C@@H]3C1=O (stereo partly drawn) | 0.201

----------
# test_summary: calcein-AM signal in unstimulated myeloma cells – cell-based, calcein-AM fluorescence, 48 h, PK04 Diversity Set, profiling panel (AID 1166);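 further: cells grown under basal conditions without added stimulus; test concentration not given here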
# assay_setup: RPMI8226 myeloma viability, higher = more signal
Categorized via z-score: low class (below -2), middle class (-2 to below -0.4), high class (-0.4 or more)

compound | assigned_label
Cc1ccc(N2C(=O)c3ccccc3[C@](C)(C(=O)NCCCN(C)C)[C@@H]2c2ccc(CO)cc2)nc1 | middle class
CC(C)[Si](C#CCCc1ccccc1)(O[C@H](c1ccccc1)c1cn(Cc2ccccc2)nn1)C(C)C | high class
CC(C)C[C@@H]1NC(=O)[C@@]23C(=O)N[C@@H](Cc4ccccc4)C2[C@H](C)[C@@]2(C)O[C@H]2C3/C=C/C/C=C\CNC(=O)CNC1=O (stereo partly specified) | high class
CC[C@@H]1C=C(C(=O)O)[C@H](c2ccc(OC)cc2)N1S(=O)(=O)c1ccc(C)cc1 | high class
NC(=O)NCC#Cc1ccc2c(c1)[C@]1(C(=O)N2)[C@H](c2ccc(OCCO)cc2)N2[C@H](c3ccccc3)[C@H](c3ccccc3)OC(=O)[C@H]2[C@@H]1C(=O)NC[C@H](O)c1ccccc1 | high class
C=C(COC)C(=O)CC[C@@H](OC(=O)c1ccccc1-c1ccccc1C(=O)O)c1ccc(OCCO)cc1 | middle class
COc1ccc(C(=O)Nc2ccc(CN3C(=O)[C@@]4(O[C@@H](CCn5cc(CCO)nn5)[C@H]([Si](C)(C)c5ccc(OC)cc5)[C@H]4C)c4ccccc43)cc2)cc1 | low class
CCOC(=O)C1=CC[C@@H](c2ccc(OC)cc2)N(S(=O)(=O)c2ccc(C)cc2)[C@H]1CC | middle class
OCCCC1=CC(c2ccc(CN3CCCC3)cc2)N(Cc2cccc(OC(F)(F)F)c2)CC1 (stereo unspecified) | low class
COC(=O)C(CC#Cc1ccc2c(c1)[C@]1(C(=O)N2)[C@H](c2ccc(OCCO)cc2)N2[C@H](c3ccccc3)[C@H](c3ccccc3)OC(=O)[C@H]2[C@@H]1C(=O)N1CCCCCCC1)C(=O)OC | middle class
CC(=O)OCC1C2CC[C@H]3C(OCc4ccc(F)cc4C(F)(F)F)OC[C@]4(C)[C@H]3C2=C(CN4C(=O)OC(C)(C)C)[C@H](C)C1COC(C)=O (stereo partly specified) | middle class
CC(C)(C)N1CC=CC23O[C@@H]4C=CCOC(=O)[C@@H]4[C@H]2C(=O)N(CCO)[C@@H]3C1=O (stereo partly specified) | middle class
Cc1ccc(S[C@]2(C(=O)NC(C)C)CC(=O)N(C3CCCCC3)[C@@H]2c2ccc(CO)cc2I)cc1 | low class
C#CCN1[C@@H](Cc2ccccc2)C(=O)O[C@H](Cc2ccccc2)[C@@H]1/C=C/C1CC1 | low class
O=C1C2C=CC(C(O)c3cccs3)N(Nc3ccc([N+](=O)[O-])cc3)C2C(=O)N1c1ccccc1 (stereo unspecified) | middle class
C=C(CCCC)C(=O)CC[C@H](OC(=O)c1ccccc1-c1ccccc1C(=O)O)c1ccc(OCCO)cc1 | low class
CN(C)CCCC[C@@H]1NC(=O)[C@@H]2C[C@H](C(=O)NCCCCCCNC(=O)CS)[C@H](c3ccc(O)cc3)N2C1=O | high class
CN1C(=O)C2C(C1=O)C1C=C(CCCO)C2C(C2CC2)N1Cc1cccc(OC(F)(F)F)c1 (stereo unspecified) | middle class
C=C(CCCC)/C(=C/C[C@H](OC(=O)c1ccncc1)c1ccccc1OCCO)c1cc(C(=O)OC)ccc1OC | middle class
COc1ccc(NN2C(C(O)c3ccc(I)cc3)C=CC3C(=O)N(C4CCCCC4)C(=O)C32)cc1 (stereo unspecified) | high class

----------
# system: Carbonic anhydrase 2 (Homo sapiens) (UniProt P00918)
# test_summary: compounds binding carbonic anhydrase 2 – biochemical, small-molecule microarray, Alexa647-labelled CAII, profiling panel (AID 1122)
# assay_setup: CAII-A647 binding fluorescence, higher = more signal

compound | composite z-score
C=C(C)[C@@H]1CC=C(C(O)C2C=CC3C(=O)N(c4ccccc4)C(=O)C3N2Nc2ccc([N+](=O)[O-])cc2)CC1 (some centres undefined) | 0.558
COCCCNC(=O)[C@@]1(CCS(=O)(=O)c2ccccc2)COC(c2ccc(OCCCO)cc2)=N1 | 0.919
COc1ccc([Si](C)(C)[C@H]2[C@H](CC(=O)N3Cc4ccccc4C[C@H]3CO)O[C@@]3(C(=O)N(c4ccccc4)c4ccccc43)[C@@H]2C)cc1 | 0.306
CCCCCCc1nc(-c2ccc(-c3ccc(Cl)c(Cl)c3)o2)cc2c1[Si](C(C)C)(C(C)C)OC2 | -0.216

----------
# system: Torsin-1A-interacting protein 2 (Homo sapiens)
# test_summary: small molecules binding lysate-expressed LULL1 – cell lysate, human LULL1 lysate, 635/667 nm fluorescence, primary screen (AID 1092);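 further: probe is lysate of COS7 cells overexpressing human LULL1; score merges per-feature 667 nm fluorescence with signal-to-noise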
# assay_setup: small-molecule microarray, hLULL1 lysate binding, 635 nm fluorescence; higher = more signal

chemical_structure | composite z-score
COC(=O)[C@@]1(Cc2ccc(OC)cc2)[C@H]2c3cc(C(=O)N4CCCC4)n(Cc4ccc(Cl)c(C(F)(F)F)c4)c3C[C@H]2CN1C(=O)c1ccccc1 | 3.59
CC1=C([C@H](O)CCc2ccccc2)[C@H](CO)n2c(=O)n(-c3ccccc3)c(=O)n2C1 | -0.478
COCCOC(=O)N1C(=O)[C@@]2(c3cc(C#CCNC(N)=O)ccc31)[C@H](C(=O)Nc1nc3ccccc3s1)[C@H]1C(=O)O[C@H](c3ccccc3)[C@H](c3ccccc3)N1[C@@H]2c1ccccc1OCCO | 1.11
